system: human CTPS1 versus CTPS2; experiment: Human CTPS1 versus CTPS2 selectivity assessment by RapidFire/MS analysis; type: biochemical; details: Table 26; RapidFire/MS IC50 ratio
Measured Property: Selectivity (fold selectivity between CTPS1 and CTPS2)

* CCOc1cncc(-c2ccc(NC(=O)C(C)(OC)c3cncc(NS(=O)(=O)C4CC4)n3)nc2)n1 (stereo not shown) [Example P205b] | ++ (>30-60 fold (++))
* CCOc1cncc(-c2cnc(NC(=O)C(CC)c3ccnc(NS(=O)(=O)C4CC4)n3)c(F)c2)n1 (stereo not shown) | ++ (>30-60 fold (++))
* CCOc1cncc(-c2ccc(NC(=O)C(F)(CC)c3ccnc(NS(=O)(=O)C4CC4)n3)nc2)n1 (racemic) [Example P112] | ++ (>30-60 fold (++))

----------
test system: human CTPS1 versus CTPS2; experiment: Human CTPS1 versus CTPS2 selectivity assessment by RapidFire/MS analysis; format: biochemical; settings: Table 26; RapidFire/MS IC50 ratio
Measured Property: Selectivity (fold selectivity between CTPS1 and CTPS2)

- CCOc1cncc(-c2ccc(NC(=O)C(F)(CC)c3ccnc(NS(=O)(=O)C4CC4)n3)nc2)n1 (single isomer, unassigned) [Example P113]: + (2-30 fold (+))
- CC(C)Oc1cncc(-c2ccc(C(=O)NC(C)(C)c3cncc(NS(=O)(=O)C4CC4)n3)c(F)c2)n1 [Example P221]: + (2-30 fold (+))
- CCOc1cncc(-c2ccc(NC(=O)C(CCOC)c3ccnc(NS(=O)(=O)C4CC4)n3)nc2)n1 (stereo not drawn) [Example P145]: +++ (>60 fold (+++))
- CCC(C(=O)Nc1ccc(-c2cncc(C(F)(F)F)n2)cn1)c1ccnc(NS(=O)(=O)C2CC2)n1 (stereo not drawn) [Example P87]: ++ (>30-60 fold (++))
- CCC(C(=O)Nc1ccc(-c2cncc(OCC(F)(F)F)n2)cc1F)c1ccnc(NS(=O)(=O)C2CC2)n1 (stereo not drawn) [Example P98]: +++ (>60 fold (+++))
- CCOc1cncc(-c2ccc(NC(=O)C3(c4ccnc(NS(=O)(=O)C5CC5)n4)CCOCC3)c(F)c2)n1 [Example P143]: +++ (>60 fold (+++))
- O=C(Cc1ccnc(NS(=O)(=O)C2CC2)n1)Nc1ccc(-c2cccnc2)cc1 [Example P16]: ++ (>30-60 fold (++))
- CCOc1cncc(-c2ccc(NC(=O)C(C)(OC)c3cncc(NS(=O)(=O)C4CC4)n3)nc2)n1 (stereo not drawn) [Example P205a]: +++ (>60 fold (+++))

Alright, here's another molecule for you.
Specify reported Selectivity (fold selectivity between CTPS1 and CTPS2) for the molecule shown: CC(C)Oc1cncc(-c2ccc(NC(=O)C(C)(C)c3ccnc(NS(=O)(=O)C4CC4)n3)nc2)n1 [Example P9] +++ (>60 fold (+++))

Reference for the values: patent US20230020663A1
